Catalogue of melting point values

Some entries whose results are on file:
CC(C)(C)OC(=O)Nc1ccc(-c2cccc(F)c2)cc1NC(=O)CC(=O)c1cccc(-n2ccnc2)c1	70 to 83 °C
O=Cc1ccc(-c2ccc(-c3cn([C@H]4CN5CCC4CC5)nn3)cc2)s1	228 °C
COc1cc([N+](=O)[O-])c(C(=O)Cc2ccccc2)cc1O	142 to 143 °C

Recorded melting point of "O=c1c2c(Cc3ccc([N+](=O)[O-])cc3)n[nH]c2c2cccnc2n1-c1ccccc1" , please.
254 to 255 °C

Recorded melting point of "COC(=O)COc1cccc2c(CNC(=O)COc3ccccc3)coc12" , please.
101 to 102 °C

These entries and their values trace back to a melting point compilation (Tetko et al.; mined from patent text by program, amines drawn as free bases though some values may be those of a salt).
